For each of the compounds below, state its selectivity ratio.
- runDescription: Selectivity index, ratio of IC50 for CHO cells to IC50 for asexual erythrocytic stage of chloroquine-sensitive Plasmodium falciparum NF54
- Assay type: toxicity, cell-based
- experimentalSetup: hamster; read-out: Ratio IC50
Reply with just the number.

Record request: selectivity ratio value, item `COc1ccc(Nc2nc(NCCNCCO[C@H]3O[C@@H]4O[C@@]5(C)CC[C@H]6[C@H](C)CC[C@@H]([C@H]3C)[C@@]46OO5)nc(NCCN(C(C)C)C(C)C)n2)cc1.O=C(O)C(=O)O`
23

Record request: selectivity ratio value, item `COc1ccc(Nc2nc(NCCNCCO[C@H]3O[C@@H]4O[C@@]5(C)CC[C@H]6[C@H](C)CC[C@@H]([C@H]3C)[C@@]46OO5)nc(N3CCCCC3)n2)cc1.O=C(O)C(=O)O`
105

Record request: selectivity ratio value, item `C[C@H]1[C@@H](OCCNCCNc2nc(N3CCCCC3)nc(N3CCCCC3)n2)O[C@@H]2O[C@@]3(C)CC[C@H]4[C@H](C)CC[C@@H]1[C@@]24OO3.O=C(O)C(=O)O`
150

Record request: selectivity ratio value, item `C[C@H]1[C@@H](OCCN(CCNc2nc(Nc3ccccc3)nc(Nc3ccccc3)n2)CCO[C@H]2O[C@@H]3O[C@@]4(C)CC[C@H]5[C@H](C)CC[C@@H]([C@H]2C)[C@@]35OO4)O[C@@H]2O[C@@]3(C)CC[C@H]4[C@H](C)CC[C@@H]1[C@@]24OO3.O=C(O)C(=O)O`
54

Record request: selectivity ratio value, item `COc1ccc(Nc2nc(NCCN(CCO[C@H]3O[C@@H]4O[C@@]5(C)CC[C@H]6[C@H](C)CC[C@@H]([C@H]3C)[C@@]46OO5)CCO[C@H]3O[C@@H]4O[C@@]5(C)CC[C@H]6[C@H](C)CC[C@@H]([C@H]3C)[C@@]46OO5)nc(N3CCOCC3)n2)cc1.O=C(O)C(=O)O`
35

Record request: selectivity ratio value, item `COc1ccc(Nc2nc(NCCNCCO[C@H]3O[C@@H]4O[C@@]5(C)CC[C@H]6[C@H](C)CC[C@@H]([C@H]3C)[C@@]46OO5)nc(N3CCOCC3)n2)cc1.O=C(O)C(=O)O`
81

Record request: selectivity ratio value, item `C[C@H]1[C@@H](OCCNCCNc2nc(Nc3ccccc3)nc(Nc3ccccc3)n2)O[C@@H]2O[C@@]3(C)CC[C@H]4[C@H](C)CC[C@@H]1[C@@]24OO3.O=C(O)C(=O)O`
588

Record request: selectivity ratio value, item `C[C@H]1[C@@H](OCCNCCNc2nc(N3CCOCC3)nc(N3CCOCC3)n2)O[C@@H]2O[C@@]3(C)CC[C@H]4[C@H](C)CC[C@@H]1[C@@]24OO3.O=C(O)C(=O)O`
160

Record request: selectivity ratio value, item `C[C@H]1[C@@H](O)O[C@@H]2O[C@@]3(C)CC[C@H]4[C@H](C)CC[C@@H]1[C@@]24OO3`
162000

Record request: selectivity ratio value, item `COc1ccc(Nc2nc(NCCN(CCO[C@H]3O[C@@H]4O[C@@]5(C)CC[C@H]6[C@H](C)CC[C@@H]([C@H]3C)[C@@]46OO5)CCO[C@H]3O[C@@H]4O[C@@]5(C)CC[C@H]6[C@H](C)CC[C@@H]([C@H]3C)[C@@]46OO5)nc(N3CCCCC3)n2)cc1.O=C(O)C(=O)O`
1470
